Entry source: patent US6562809B1

Molecular target: 5-HT1D receptor (Homo sapiens, UniProt P28221)
Construct: expressed in transfected cells
Sequence (P28221 whole entry): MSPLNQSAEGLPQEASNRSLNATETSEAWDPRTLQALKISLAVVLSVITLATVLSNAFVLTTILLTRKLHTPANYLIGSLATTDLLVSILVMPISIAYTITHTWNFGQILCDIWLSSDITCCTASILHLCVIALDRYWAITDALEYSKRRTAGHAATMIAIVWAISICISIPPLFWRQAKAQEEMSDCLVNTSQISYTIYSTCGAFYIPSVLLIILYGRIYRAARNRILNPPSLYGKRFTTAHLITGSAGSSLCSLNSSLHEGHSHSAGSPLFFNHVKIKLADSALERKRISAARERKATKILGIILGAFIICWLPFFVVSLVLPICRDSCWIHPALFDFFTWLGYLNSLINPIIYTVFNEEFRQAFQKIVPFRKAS
Assay: Binding affinity, 3H-serotonin displacement from membranes of cells expressing 5-HT1D
Settings: 100 nM of test compound; 3H-serotonin 1 nM; 60 minute incubation at 22° C.; read-out: percent inhibition of binding of the radioligand at the 5-HT1D receptor
Hi there, I'd appreciate the recorded inhibition at 0.1 µM for every entry that follows.

Lookup: What does the record list as inhibition at 0.1 µM for C1=C(c2ccc3[nH]cc(C4=CC5CCCN5CC4)c3c2)CCSC1 (stereo not drawn) [Example 8f] ?
Found: > 75%

Lookup: What does the record list as inhibition at 0.1 µM for COc1ccc2[nH]cc(C3=CCN4CCCC4C3)c2c1 (stereo not drawn) [Example 3b] ?
Found: > 75%

Lookup: What does the record list as inhibition at 0.1 µM for Brc1ccc2[nH]cc(C3=CCN4CCCC4C3)c2c1 (stereo not drawn) [Example 3e] ?
Found: > 75%

Lookup: What does the record list as inhibition at 0.1 µM for C1=C(c2ccc3[nH]cc(C4=CC5CCCN5CC4)c3c2)CCCC1 (stereo not drawn) [Example 8d] ?
Found: > 75%

Lookup: What does the record list as inhibition at 0.1 µM for C1=C(c2ccc3[nH]cc(C4=CCN5CCCC5C4)c3c2)CCOC1 (stereo not drawn) [Example 8a] ?
Found: > 75%

Lookup: What does the record list as inhibition at 0.1 µM for OC1(c2ccc3[nH]cc(C4=CCN5CCCC5C4)c3c2)CCOCC1 (stereo not drawn) [Example 7] ?
Found: > 75%

Lookup: What does the record list as inhibition at 0.1 µM for OC1(c2ccc3[nH]cc(C4=CCN5CCCC5C4)c3c2)CCCCC1 (stereo not drawn) [Example 3h] ?
Found: > 75%

Lookup: What does the record list as inhibition at 0.1 µM for CC(C)c1ccc2[nH]cc(C3=CCN4CCCC4C3)c2c1 (stereo not drawn) [Example 3d] ?
Found: > 75%

Lookup: What does the record list as inhibition at 0.1 µM for C1=C(c2c[nH]c3ccc(OC4CCCCC4)cc23)CC2CCCN2C1 (stereo not drawn) [Example 3f] ?
Found: > 75%
